MEASUREMENT TYPE: melting point

These solved cases illustrate the format of a correct answer.
INSERT INTO assay_data (compound, obs_value) VALUES
  ('COCON1C(=O)C(c2cc(Br)c(F)cc2C)=C(O)C12CCN(OC)CC2 [Compound P2.89]', '64 to 67 °C'),
  ('CON1CCC2(CC1)C(O)=C(c1c(C)cc(C)cc1C)C(=O)N2OCC1CCCCC1 [Compound P2.96]', '169 to 172 °C'),
  ('CON1CCC2(CC1)C(O)=C(c1c(C)cc(C)cc1C)C(=O)N2OCCOC1CCCCO1 (stereo not shown) [Compound P2.22]', '135 to 137 °C');

Okay, now this compound:
Which melting point is listed for CON1CCC2(CC1)C(O)=C(c1c(C)cc(Cl)cc1C)C(=O)N2OC1CCCO1 (stereo not shown) [Compound P2.105] ?
137 to 139 °C

====

melting point by entry:

INSERT INTO assay_data (compound, measurement_type, obs_value) VALUES
  ('COCON1C(=O)C(c2c(C)cc(-c3ccc(Cl)cc3)cc2C)=C(O)C12CCN(OC)CC2 [Compound P2.15]', 'melting point', '128 °C (dec.)'),
  ('COCCON1C(=O)C(c2c(C)cc(Cl)cc2C)=C(O)C12CCN(OC)CC2 [Compound P2.101]', 'melting point', '161 to 164 °C'),
  ('COCCON1C(=O)C(c2cc(Br)c(F)cc2C)=C(O)C12CCN(OC)CC2 [Compound P2.87]', 'melting point', '71 to 74 °C'),
  ('CON1CCC2(CC1)C(O)=C(c1c(C)cc(Cl)cc1C)C(=O)N2OC [Compound P2.102]', 'melting point', '88 to 92 °C'),
  ('CON1CCC2(CC1)C(O)=C(c1cc(Br)c(C)cc1C)C(=O)N2OC [Compound P2.75]', 'melting point', '86 to 87 °C');

Which melting point is listed for CON1CCC2(CC1)C(O)=C(c1c(C)cc(Cl)cc1C)C(=O)N2O [Compound P2.103] ?
228 to 231 °C

Would you mind doing COCON1C(=O)C(c2c(C)cc(Cl)cc2C)=C(O)C12CCN(OC)CC2 [Compound P2.104] as well?
176 to 178 °C

Would you mind doing COCCON1C(=O)C(c2cc(Br)c(C)cc2C)=C(O)C12CCN(OC)CC2 [Compound P2.73] as well?
63 to 64 °C

Would you mind doing COCON1C(=O)C(c2c(F)ccc(C)c2Cl)=C(O)C12CCN(OC)CC2 [Compound P2.60] as well?
155 to 158 °C
